Experimental system: human D2 receptor (Homo sapiens (Human), UniProt P14416)
Sequence (P14416 whole entry): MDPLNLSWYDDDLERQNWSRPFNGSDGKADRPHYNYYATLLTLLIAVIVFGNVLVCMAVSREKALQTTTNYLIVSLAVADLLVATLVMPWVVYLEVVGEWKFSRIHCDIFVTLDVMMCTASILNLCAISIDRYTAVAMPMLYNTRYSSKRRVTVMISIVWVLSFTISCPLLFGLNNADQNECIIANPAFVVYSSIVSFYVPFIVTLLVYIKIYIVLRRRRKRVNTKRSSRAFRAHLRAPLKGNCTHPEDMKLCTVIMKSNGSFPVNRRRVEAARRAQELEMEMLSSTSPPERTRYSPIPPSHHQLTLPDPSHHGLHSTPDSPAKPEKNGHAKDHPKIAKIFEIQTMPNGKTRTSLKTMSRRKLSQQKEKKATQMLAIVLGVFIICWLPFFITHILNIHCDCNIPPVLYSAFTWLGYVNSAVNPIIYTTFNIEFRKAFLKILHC
Procedure summary: Radioligand binding ([3H]-spiperone) to human D2 receptor, HEK293 EBNA membranes
Protocol conditions: HEK293 EBNA cells expressing human D2 receptor
Endpoint name: Ki (µM)

[
  {
    "Input smiles": "CN(C)C(=O)CCC(=O)N[C@H]1CC[C@H](CCN2CCC(c3coc4ccccc34)CC2)CC1",
    "Units text": "µM",
    "Meas value": 0.0923
  },
  {
    "Input smiles": "O=C(N[C@H]1CC[C@H](CCN2CCC(c3coc4ccccc34)CC2)CC1)c1ccc(-c2cccnc2)cc1",
    "Units text": "µM",
    "Meas value": 0.0167
  },
  {
    "Input smiles": "CCCC(=O)N[C@H]1CC[C@H](CCN2CCC(c3coc4ccccc34)CC2)CC1",
    "Units text": "µM",
    "Meas value": 0.0453
  },
  {
    "Input smiles": "O=C(N[C@H]1CC[C@H](CCN2CCC(c3coc4ccccc34)CC2)CC1)c1ccc(-n2cccc2)cc1",
    "Units text": "µM",
    "Meas value": 0.0343
  }
]

###

Endpoint name: melting point (°C)

[
  {
    "Compound": "O=C(CC1CCCO1)N[C@H]1CC[C@H](CCN2CCC(c3coc4ccccc34)CC2)CC1 (some centres unmarked) [Example 29]",
    "Endpoint name": "melting point",
    "Meas value": 149
  },
  {
    "Compound": "COCC(=O)N[C@H]1CC[C@H](CCN2CCC(c3coc4ccccc34)CC2)CC1 [Example 6]",
    "Endpoint name": "melting point",
    "Meas value": 115
  },
  {
    "Compound": "O=C(N[C@H]1CC[C@H](CCN2CCC(c3coc4ccccc34)CC2)CC1)C1CCOCC1 [Example 3]",
    "Endpoint name": "melting point",
    "Meas value": 175
  },
  {
    "Compound": "O=C(N[C@H]1CC[C@H](CCN2CCC(c3coc4ccccc34)CC2)CC1)C1CC1 [Example 27]",
    "Endpoint name": "melting point",
    "Meas value": 204
  },
  {
    "Compound": "O=C(N[C@H]1CC[C@H](CCN2CCC(c3coc4ccccc34)CC2)CC1)c1ccc(N2CCCCC2)cc1 [Example 51]",
    "Endpoint name": "melting point",
    "Meas value": 221
  },
  {
    "Compound": "CC(C)(C)Oc1ccc(C(=O)N[C@H]2CC[C@H](CCN3CCC(c4coc5ccccc45)CC3)CC2)cc1 [Example 71]",
    "Endpoint name": "melting point",
    "Meas value": 186
  },
  {
    "Compound": "O=C(N[C@H]1CC[C@H](CCN2CCC(c3coc4ccccc34)CC2)CC1)c1cnc(N2CCOCC2)cn1 [Example 67]",
    "Endpoint name": "melting point",
    "Meas value": 202
  },
  {
    "Compound": "CN1CCN(c2ccc(C(=O)N[C@H]3CC[C@H](CCN4CCC(c5coc6ccccc56)CC4)CC3)cc2)CC1 [Example 62]",
    "Endpoint name": "melting point",
    "Meas value": 242
  }
]

###

Experimental system: human D2 receptor (Homo sapiens (Human), UniProt P14416)
Procedure summary: Radioligand binding ([3H]-spiperone) to human D2 receptor, HEK293 EBNA membranes
Protocol conditions: HEK293 EBNA cells expressing human D2 receptor
pKi: −log10 of the molar value.
Below, each entry is listed with its recorded pKi.
Endpoint name: pKi

[
  {
    "Compound": "O=CN[C@H]1CC[C@H](CCN2CCC(c3coc4ccccc34)CC2)CC1 [Example 56]",
    "Experimental system": "human D2 receptor (Homo sapiens (Human), UniProt P14416)",
    "Endpoint name": "pKi",
    "Meas value": 7.41
  },
  {
    "Compound": "O=C(N[C@H]1CC[C@H](CCN2CCC(c3coc4ccccc34)CC2)CC1)C1CCOCC1 [Example 3]",
    "Experimental system": "human D2 receptor (Homo sapiens (Human), UniProt P14416)",
    "Endpoint name": "pKi",
    "Meas value": 7.43
  },
  {
    "Compound": "O=C(N[C@H]1CC[C@H](CCN2CCC(c3coc4ccccc34)CC2)CC1)c1ccc(-c2ccccc2)cc1 [Example 63]",
    "Experimental system": "human D2 receptor (Homo sapiens (Human), UniProt P14416)",
    "Endpoint name": "pKi",
    "Meas value": 7.66
  },
  {
    "Compound": "Cc1cc(C(=O)N[C@H]2CC[C@H](CCN3CCC(c4coc5ccccc45)CC3)CC2)on1 [Example 41]",
    "Experimental system": "human D2 receptor (Homo sapiens (Human), UniProt P14416)",
    "Endpoint name": "pKi",
    "Meas value": 7.44
  },
  {
    "Compound": "O=C(N[C@H]1CC[C@H](CCN2CCC(c3coc4ccccc34)CC2)CC1)c1cnc(N2CCOCC2)cn1 [Example 67]",
    "Experimental system": "human D2 receptor (Homo sapiens (Human), UniProt P14416)",
    "Endpoint name": "pKi",
    "Meas value": 6.98
  },
  {
    "Compound": "CC(C)(C)c1ccc(C(=O)N[C@H]2CC[C@H](CCN3CCC(c4coc5ccccc45)CC3)CC2)cc1 [Example 60]",
    "Experimental system": "human D2 receptor (Homo sapiens (Human), UniProt P14416)",
    "Endpoint name": "pKi",
    "Meas value": 5.95
  },
  {
    "Compound": "O=C(N[C@H]1CC[C@H](CCN2CCC(c3coc4ccccc34)CC2)CC1)c1ccc(C(F)(F)F)cc1 [Example 50]",
    "Experimental system": "human D2 receptor (Homo sapiens (Human), UniProt P14416)",
    "Endpoint name": "pKi",
    "Meas value": 6.82
  },
  {
    "Compound": "O=C(CC1CC1)N[C@H]1CC[C@H](CCN2CCC(c3coc4ccccc34)CC2)CC1 [Example 25]",
    "Experimental system": "human D2 receptor (Homo sapiens (Human), UniProt P14416)",
    "Endpoint name": "pKi",
    "Meas value": 7.47
  },
  {
    "Compound": "Cc1nc(-c2ccc(C(=O)N[C@H]3CC[C@H](CCN4CCC(c5coc6ccccc56)CC4)CC3)cc2)no1 [Example 61]",
    "Experimental system": "human D2 receptor (Homo sapiens (Human), UniProt P14416)",
    "Endpoint name": "pKi",
    "Meas value": 6.64
  },
  {
    "Compound": "CC(C)(C)C1CCC(C(=O)N[C@H]2CC[C@H](CCN3CCC(c4coc5ccccc45)CC3)CC2)CC1 (stereo partly shown) [Example 77]",
    "Experimental system": "human D2 receptor (Homo sapiens (Human), UniProt P14416)",
    "Endpoint name": "pKi",
    "Meas value": 6.46
  },
  {
    "Compound": "CC(C)C(=O)N[C@H]1CC[C@H](CCN2CCC(c3coc4ccccc34)CC2)CC1 [Example 14]",
    "Experimental system": "human D2 receptor (Homo sapiens (Human), UniProt P14416)",
    "Endpoint name": "pKi",
    "Meas value": 7.40
  },
  {
    "Compound": "O=C(N[C@H]1CC[C@H](CCN2CCC(c3coc4ccccc34)CC2)CC1)c1ccc(N2CCOCC2)cc1 [Example 13]",
    "Experimental system": "human D2 receptor (Homo sapiens (Human), UniProt P14416)",
    "Endpoint name": "pKi",
    "Meas value": 6.39
  },
  {
    "Compound": "O=C(Cc1noc2ccccc12)N[C@H]1CC[C@H](CCN2CCC(c3coc4ccccc34)CC2)CC1 [Example 85]",
    "Experimental system": "human D2 receptor (Homo sapiens (Human), UniProt P14416)",
    "Endpoint name": "pKi",
    "Meas value": 6.61
  },
  {
    "Compound": "O=C(CC(F)(F)F)N[C@H]1CC[C@H](CCN2CCC(c3coc4ccccc34)CC2)CC1 [Example 12]",
    "Experimental system": "human D2 receptor (Homo sapiens (Human), UniProt P14416)",
    "Endpoint name": "pKi",
    "Meas value": 7.37
  },
  {
    "Compound": "O=C(N[C@H]1CC[C@H](CCN2CCC(c3coc4ccccc34)CC2)CC1)C1CC1 [Example 27]",
    "Experimental system": "human D2 receptor (Homo sapiens (Human), UniProt P14416)",
    "Endpoint name": "pKi",
    "Meas value": 7.64
  },
  {
    "Compound": "O=C(N[C@H]1CC[C@H](CCN2CCC(c3coc4ccccc34)CC2)CC1)C1CCCOC1 (stereo partly shown) [Example 26]",
    "Experimental system": "human D2 receptor (Homo sapiens (Human), UniProt P14416)",
    "Endpoint name": "pKi",
    "Meas value": 7.43
  },
  {
    "Compound": "C/C=C/CC(=O)N[C@H]1CC[C@H](CCN2CCC(c3coc4ccccc34)CC2)CC1 [Example 54]",
    "Experimental system": "human D2 receptor (Homo sapiens (Human), UniProt P14416)",
    "Endpoint name": "pKi",
    "Meas value": 7.24
  },
  {
    "Compound": "CC(C)(O)CC(=O)N[C@H]1CC[C@H](CCN2CCC(c3coc4ccccc34)CC2)CC1 [Example 34]",
    "Experimental system": "human D2 receptor (Homo sapiens (Human), UniProt P14416)",
    "Endpoint name": "pKi",
    "Meas value": 7.38
  },
  {
    "Compound": "CCC(C)C(=O)N[C@H]1CC[C@H](CCN2CCC(c3coc4ccccc34)CC2)CC1 (mixture of isomers) [Example 31]",
    "Experimental system": "human D2 receptor (Homo sapiens (Human), UniProt P14416)",
    "Endpoint name": "pKi",
    "Meas value": 7.34
  },
  {
    "Compound": "O=C(N[C@H]1CC[C@H](CCN2CCC(c3coc4ccccc34)CC2)CC1)c1ccc(N2CCOCC2)nc1 [Example 65]",
    "Experimental system": "human D2 receptor (Homo sapiens (Human), UniProt P14416)",
    "Endpoint name": "pKi",
    "Meas value": 7.29
  },
  {
    "Compound": "Cc1ccc(S(=O)(=O)N[C@H]2CC[C@H](CCN3CCC(c4coc5ccccc45)CC3)CC2)cc1 [Example 38]",
    "Experimental system": "human D2 receptor (Homo sapiens (Human), UniProt P14416)",
    "Endpoint name": "pKi",
    "Meas value": 7.23
  },
  {
    "Compound": "O=C(N[C@H]1CC[C@H](CCN2CCC(c3coc4ccccc34)CC2)CC1)c1ccc(N2CCCCC2)cc1 [Example 51]",
    "Experimental system": "human D2 receptor (Homo sapiens (Human), UniProt P14416)",
    "Endpoint name": "pKi",
    "Meas value": 6.46
  },
  {
    "Compound": "CCCCC(=O)N[C@H]1CC[C@H](CCN2CCC(c3coc4ccccc34)CC2)CC1 [Example 57]",
    "Experimental system": "human D2 receptor (Homo sapiens (Human), UniProt P14416)",
    "Endpoint name": "pKi",
    "Meas value": 7.18
  },
  {
    "Compound": "O=C(CCC(F)(F)F)N[C@H]1CC[C@H](CCN2CCC(c3coc4ccccc34)CC2)CC1 [Example 44]",
    "Experimental system": "human D2 receptor (Homo sapiens (Human), UniProt P14416)",
    "Endpoint name": "pKi",
    "Meas value": 7.21
  },
  {
    "Compound": "CC(C)(C)Oc1ccc(C(=O)N[C@H]2CC[C@H](CCN3CCC(c4coc5ccccc45)CC3)CC2)cc1 [Example 71]",
    "Experimental system": "human D2 receptor (Homo sapiens (Human), UniProt P14416)",
    "Endpoint name": "pKi",
    "Meas value": 6.77
  },
  {
    "Compound": "O=C(CO)N[C@H]1CC[C@H](CCN2CCC(c3coc4ccccc34)CC2)CC1 [Example 11]",
    "Experimental system": "human D2 receptor (Homo sapiens (Human), UniProt P14416)",
    "Endpoint name": "pKi",
    "Meas value": 7.33
  },
  {
    "Compound": "CCS(=O)(=O)N[C@H]1CC[C@H](CCN2CCC(c3coc4ccccc34)CC2)CC1 [Example 37]",
    "Experimental system": "human D2 receptor (Homo sapiens (Human), UniProt P14416)",
    "Endpoint name": "pKi",
    "Meas value": 7.32
  },
  {
    "Compound": "CS(=O)(=O)N[C@H]1CC[C@H](CCN2CCC(c3coc4ccccc34)CC2)CC1 [Example 36]",
    "Experimental system": "human D2 receptor (Homo sapiens (Human), UniProt P14416)",
    "Endpoint name": "pKi",
    "Meas value": 7.32
  },
  {
    "Compound": "COC(CC(=O)N[C@H]1CC[C@H](CCN2CCC(c3coc4ccccc34)CC2)CC1)OC [Example 52]",
    "Experimental system": "human D2 receptor (Homo sapiens (Human), UniProt P14416)",
    "Endpoint name": "pKi",
    "Meas value": 7.31
  },
  {
    "Compound": "O=C(N[C@H]1CC[C@H](CCN2CCC(c3coc4ccccc34)CC2)CC1)c1ccc(N2CCS(=O)(=O)CC2)cc1 [Example 66]",
    "Experimental system": "human D2 receptor (Homo sapiens (Human), UniProt P14416)",
    "Endpoint name": "pKi",
    "Meas value": 7.72
  },
  {
    "Compound": "CCC(=O)N[C@H]1CC[C@H](CCN2CCC(c3coc4ccccc34)CC2)CC1 [Example 5]",
    "Experimental system": "human D2 receptor (Homo sapiens (Human), UniProt P14416)",
    "Endpoint name": "pKi",
    "Meas value": 7.32
  }
]
